Molecular target: CDK2 (h) (cycA) (Homo sapiens (Human), UniProt P24941)
Assay: Kinase selectivity panel and IC50 determination
Format: biochemical
Conditions: 10 μM, duplicate; read-out: % inhibition of control values, CDK2 (h) (cycA)
Where a name gives a salt, the structure may show the parent alone.
Measurement label: inhibition at 10 µM (%)

{"Compound": "COc1ccncc1-c1ccc2[nH]nc(C(=O)NCC3CCN(Cc4ccc(C(=O)O)o4)CC3)c2c1 [Compound 21, formate]", "Unit string": "%", "inhibition at 10 µM": 100}
{"Compound": "COc1ccc2[nH]nc(C(=O)NCC3CCN(CCc4ccc(O)cc4)CC3)c2c1", "Unit string": "%", "inhibition at 10 µM": 27}
{"Compound": "COC(=O)c1csc(CN2CCC(CNC(=O)c3n[nH]c4ccc(OC)cc34)CC2)n1", "Unit string": "%", "inhibition at 10 µM": 48}

A: O=C(O)c1coc(CN2CCC(CNC(=O)c3n[nH]c4ccc(-c5cccc(F)c5F)cc34)CC2)n1 [Compound 12, hydrate]
B: COc1ccc2[nH]nc(C(=O)NCC3CCN(Cc4ccc(C(=O)O)o4)CC3)c2c1
Enquiry: Smaller inhibition at 10 µM value, A vs B ? Refer to your chosen entry by its label in the reply.
Return: B
(B: 36%, A: 96%)

---

Molecular target: human GSK-3β (Homo sapiens (Human), UniProt P49841)
Sequence (P49841 whole entry): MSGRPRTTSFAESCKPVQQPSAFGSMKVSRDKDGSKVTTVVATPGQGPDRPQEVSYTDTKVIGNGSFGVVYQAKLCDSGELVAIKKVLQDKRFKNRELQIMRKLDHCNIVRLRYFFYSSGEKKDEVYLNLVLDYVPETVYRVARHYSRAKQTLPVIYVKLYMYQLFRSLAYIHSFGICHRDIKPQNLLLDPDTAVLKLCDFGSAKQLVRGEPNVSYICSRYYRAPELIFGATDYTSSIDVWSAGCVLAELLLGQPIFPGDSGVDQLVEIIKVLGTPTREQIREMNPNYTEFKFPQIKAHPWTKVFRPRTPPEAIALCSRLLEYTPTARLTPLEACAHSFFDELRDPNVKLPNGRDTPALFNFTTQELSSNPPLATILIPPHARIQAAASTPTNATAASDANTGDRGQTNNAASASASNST
Experiment: Activity on human GSK-3β, substrate phosphorylation measured by LANCE technology
Format: biochemical
Conditions: LANCE phosphorylation assay; five concentrations 100 μM to 10 nM, duplicate; read-out: IC50
Measurement label: IC50 (nM)

Use the examples below as a reference point.
{"Compound": "CCOC(=O)c1ccc(CN2CCC(CNC(=O)c3n[nH]c4ccc(Br)cc34)CC2)o1", "IC50 / nM": 260}
{"Compound": "COc1ccc2[nH]nc(C(=O)NCC3CCN(Cc4ccc(O)cc4)CC3)c2c1", "IC50 / nM": 400}

A: COc1ccc2[nH]nc(C(=O)NCC3CCN(Cc4ccc(Cl)cc4Cl)CC3)c2c1
B: COc1ccc(-c2ccc3[nH]nc(C(=O)NCC4CCN(Cc5ccc(C(=O)O)o5)CC4)c3c2)cn1 [Compound 17, hydrate]
Enquiry: Which one would you say has the larger IC50 value: A , or B ? Refer to your chosen entry by its label in the reply.
Return: A

---

Target: CDK5/p35 (h) (Homo sapiens (Human))
Sequence (Q00535 whole entry): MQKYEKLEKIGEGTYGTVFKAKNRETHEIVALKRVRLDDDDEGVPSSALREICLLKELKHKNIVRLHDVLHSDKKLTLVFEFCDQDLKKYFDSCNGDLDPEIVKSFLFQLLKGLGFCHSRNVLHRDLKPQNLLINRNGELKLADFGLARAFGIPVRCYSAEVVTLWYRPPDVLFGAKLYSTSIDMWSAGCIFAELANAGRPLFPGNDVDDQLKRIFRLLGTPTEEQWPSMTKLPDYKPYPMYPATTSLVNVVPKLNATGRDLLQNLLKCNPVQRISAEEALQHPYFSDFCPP
Sequence (Q15078 whole entry partner): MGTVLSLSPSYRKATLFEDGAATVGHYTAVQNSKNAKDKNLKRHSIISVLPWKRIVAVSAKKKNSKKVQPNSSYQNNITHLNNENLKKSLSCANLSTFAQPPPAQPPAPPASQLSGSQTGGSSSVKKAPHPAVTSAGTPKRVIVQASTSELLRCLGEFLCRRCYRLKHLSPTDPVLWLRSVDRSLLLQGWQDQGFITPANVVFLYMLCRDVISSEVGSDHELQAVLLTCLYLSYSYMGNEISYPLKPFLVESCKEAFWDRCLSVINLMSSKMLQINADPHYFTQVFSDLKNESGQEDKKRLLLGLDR
Experiment: Kinase selectivity panel
Format: biochemical
Details: duplicate, read-out: % inhibition of control values, CDK5/p35 (h)
Counter-ions that a name gives are not always drawn.
Measurement label: inhibition at 10 µM (%)

Use the examples below as a reference point.
{"Molecule": "O=C(O)c1coc(CN2CCC(CNC(=O)c3n[nH]c4ccc(-c5cccc(F)c5F)cc34)CC2)n1 [Compound 12, hydrate]", "Tested system": "CDK5/p35 (h) (Homo sapiens (Human))", "inhibition at 10 µM / %": 87}
{"Molecule": "COc1ccc2[nH]nc(C(=O)NCC3CCN(Cc4ccc(C(=O)O)o4)CC3)c2c1", "Tested system": "CDK5/p35 (h) (Homo sapiens (Human))", "inhibition at 10 µM / %": 16}
{"Molecule": "COc1ccc2[nH]nc(C(=O)NCC3CCN(CCc4ccc(O)cc4)CC3)c2c1", "Tested system": "CDK5/p35 (h) (Homo sapiens (Human))", "inhibition at 10 µM / %": 30}

1: COC(=O)c1csc(CN2CCC(CNC(=O)c3n[nH]c4ccc(OC)cc34)CC2)n1
2: COc1ccncc1-c1ccc2[nH]nc(C(=O)NCC3CCN(Cc4ccc(C(=O)O)o4)CC3)c2c1 [Compound 21, formate]
Enquiry: Smaller inhibition at 10 µM value, 1 vs 2 ? Refer to your chosen entry by its label in the reply.
Return: 1
(1: 21%, 2: 98%)
